system: rodent lifetime carcinogenesis bioassay, tumor incidence TD50; assay: carcinogenic potency in animals, long-term in vivo studies, CPDB compilation (AID 1745844); settings: mouse; strain Swiss albino; females; in drinking water; site: lung; lesion: several types; types named in the paper; dosed 102 weeks; study length 102 weeks
propertyMeasured: TD50

GET /value?item= NNC(=O)c1cccnc1 &field=TD50 returns 145 mg/kg/day

###

tested on: rodent lifetime carcinogenesis bioassay, tumor incidence TD50; assay: carcinogenic potency in animals, long-term in vivo studies, CPDB compilation (AID 1745844); conditions: mouse; strain Swiss; males; in drinking water; site: liver; lesion: hepatoma; dosed 69 weeks; study length 69 weeks
propertyMeasured: TD50 (mg/kg/day)
Record the value in mg/kg/day, omitting the unit from your answer.

# compound CNN ; its TD50 = 7.25

###

tested on: rodent lifetime carcinogenesis bioassay, tumor incidence TD50; experiment: carcinogenic potency in animals, long-term in vivo studies, CPDB compilation (AID 1745844); settings: rat; strain ACI/n; males; in feed; site: liver; lesion: several types; types named in the paper; dosed 68 weeks; study length 68 weeks
propertyMeasured: TD50

Form field TD50, entry O=C1c2ccccc2C(=O)c2c(O)cccc21 : 219 mg/kg/day

###

system: rodent lifetime carcinogenesis bioassay, tumor incidence TD50; assay: carcinogenic potency in animals, long-term in vivo studies, CPDB compilation (AID 1745844); conditions: mouse; strain C57BL/10J; females; in feed; site: liver; lesion: hepatocellular adenoma; dosed 97 weeks; study length 97 weeks
propertyMeasured: TD50 (mg/kg/day)
Return type: number; implicit unit mg/kg/day.

Data point: CC(=O)O[C@]1(C(C)=O)CC[C@H]2[C@@H]3C=C(Cl)C4=CC(=O)[C@@H]5C[C@@H]5[C@]4(C)[C@H]3CC[C@@]21C ; TD50 = 1120

###

tested on: rodent lifetime carcinogenesis bioassay, tumor incidence TD50; assay: carcinogenic potency in animals, long-term in vivo studies, CPDB compilation (AID 1745844); conditions: rat; strain Wistar; males; inhaled; site: liver; lesion: hepatocellular adenoma; dosed 78 weeks; study length 157 weeks
propertyMeasured: TD50

Please fill in: TD50 reported for ClC#CCl = 12.9 mg/kg/day

###

system: rodent lifetime carcinogenesis bioassay, tumor incidence TD50; assay: carcinogenic potency in animals, long-term in vivo studies, CPDB compilation (AID 1745844); details: rat; strain Wistar; males; in feed; site: kidney; lesion: squamous-cell carcinoma; dosed 75 weeks; study length 75 weeks
propertyMeasured: TD50

Just so you know, measured TD50 for COc1cc2c(cc1N)oc1ccccc12 came out at 164 mg/kg/day

###

tested on: rodent lifetime carcinogenesis bioassay, tumor incidence TD50; test: carcinogenic potency in animals, long-term in vivo studies, CPDB compilation (AID 1745844); conditions: mouse; strain B6C3F1; males; oral dosing; site: lung; lesion: adenoma; dosed 81 weeks; study length 81 weeks
propertyMeasured: TD50 (mg/kg/day)
Quick note: give the figure in mg/kg/day, leave out the unit.

For this molecule ( CCCc1ccc2c(c1)OCO2 ), measured TD50 is 358

###

system: rodent lifetime carcinogenesis bioassay, tumor incidence TD50; experiment: carcinogenic potency in animals, long-term in vivo studies, CPDB compilation (AID 1745844); details: mouse; strain B6C3F1; males; inhaled; site: liver; lesion: hepatocellular adenoma; dosed 26 weeks; study length 53 weeks
propertyMeasured: TD50 (mg/kg/day)
State just the number; it will be interpreted in mg/kg/day.

// TD50 lookup, compound = C=CC(=C)C , result: 150

###

tested on: rodent lifetime carcinogenesis bioassay, tumor incidence TD50; assay: carcinogenic potency in animals, long-term in vivo studies, CPDB compilation (AID 1745844); details: rat; strain Fischer 344; males; inhaled; site: adrenal medulla; lesion: pheochromocytoma + pheochromocytoma, malignant; dosed 104 weeks; study length 106 weeks
propertyMeasured: TD50

TD50 in this record for CCBr : 149 mg/kg/day

###

test system: rodent lifetime carcinogenesis bioassay, tumor incidence TD50; assay: carcinogenic potency in animals, long-term in vivo studies, CPDB compilation (AID 1745844); conditions: rat; strain Fischer 344; females; in feed; site: urinary bladder; lesion: transitional-cell carcinoma; dosed 104 weeks; study length 105 weeks
propertyMeasured: TD50

Kindly note: rodent lifetime carcinogenesis bioassay, tumor incidence TD50, O=Nc1ccc(NO)cc1 , TD50 value reported: 182 mg/kg/day

###

test system: rodent lifetime carcinogenesis bioassay, tumor incidence TD50; test: carcinogenic potency in animals, long-term in vivo studies, CPDB compilation (AID 1745844); conditions: mouse; strain B6C3F1; males; inhaled; site: liver; lesion: hepatocellular adenoma + hepatocellular carcinoma; dosed 40 weeks; study length 104 weeks
propertyMeasured: TD50 (mg/kg/day)
Give just the number in mg/kg/day; leave the unit off.

Quick note, TD50 for C=CC=C landed at 16.8

###

tested on: rodent lifetime carcinogenesis bioassay, tumor incidence TD50; test: carcinogenic potency in animals, long-term in vivo studies, CPDB compilation (AID 1745844); settings: mouse; strain Monohybrid cross offspring of B6CF1 (C57BL/6 x BALB/c); females; in feed; site: ovary; lesion: granulosa-cell tumor; dosed 144 weeks; study length 153 weeks
propertyMeasured: TD50 (mg/kg/day)
Only the number, expressed in mg/kg/day, is required.

Item: CC/C(=C(/CC)c1ccc(O)cc1)c1ccc(O)cc1 | TD50: 1.74

###

system: rodent lifetime carcinogenesis bioassay, tumor incidence TD50; assay: carcinogenic potency in animals, long-term in vivo studies, CPDB compilation (AID 1745844); settings: rat; strain Charles River CD1; males; in feed; site: urinary bladder; lesion: transitional-cell carcinoma; dosed 104 weeks; study length 104 weeks
propertyMeasured: TD50 (mg/kg/day)
# number only, unit mg/kg/day dropped from output

Input CCOP(=O)=O.CCOP(=O)=O.CCOP(=O)=O.[Al+3] . Output TD50: 5000

###

test system: rodent lifetime carcinogenesis bioassay, tumor incidence TD50; assay: carcinogenic potency in animals, long-term in vivo studies, CPDB compilation (AID 1745844); conditions: mouse; strain B6C3F1; females; in feed; site: any site (literature study); lesion: several types; types named in the paper; dosed 109 weeks; study length 103 weeks
The source made the active and inactive calls. The rule behind the calls is not given here.
propertyMeasured: TD50

// field: TD50; key: S=C(NC1CCCCC1)NC1CCCCC1 ; value = 122000 mg/kg/day (inactive)

###

tested on: rodent lifetime carcinogenesis bioassay, tumor incidence TD50; assay: carcinogenic potency in animals, long-term in vivo studies, CPDB compilation (AID 1745844); conditions: mouse; strain BALB/cLacDp; females; in drinking water; site: all sites; lesion: lymphoma; dosed 80 weeks; study length 123 weeks
The source made the active and inactive calls. How the calls were made is not given here.
propertyMeasured: TD50

What the record says about CC(O)CN(C)c1ccc(NN)nn1 (stereo unspecified) : TD50 is 408 mg/kg/day (inactive)

###

test system: rodent lifetime carcinogenesis bioassay, tumor incidence TD50; assay: carcinogenic potency in animals, long-term in vivo studies, CPDB compilation (AID 1745844); conditions: mouse; strain B6C3F1; males; in feed; site: liver; lesion: hepatocellular adenoma; dosed 65 weeks; study length 65 weeks
propertyMeasured: TD50

Short answer on rodent lifetime carcinogenesis bioassay, tumor incidence TD50 for CN(C)CCOC(C)(c1ccccc1)c1ccccn1 (stereo unspecified) , TD50: 77.8 mg/kg/day

###

system: rodent lifetime carcinogenesis bioassay, tumor incidence TD50; test: carcinogenic potency in animals, long-term in vivo studies, CPDB compilation (AID 1745844); conditions: rat; strain Fischer 344; males; in feed; site: subcutaneous tissue; lesion: fibrosarcoma + fibroma + sarcoma; dosed 12 weeks; study length 103 weeks
propertyMeasured: TD50 (mg/kg/day)
Give a bare numeral; the unit mg/kg/day is implied.

Lab book: TD50 of OCC(CO)(CBr)CBr noted as 87.3

###

system: rodent lifetime carcinogenesis bioassay, tumor incidence TD50; assay: carcinogenic potency in animals, long-term in vivo studies, CPDB compilation (AID 1745844); details: rat; strain Fischer 344; females; in feed; site: forestomach; lesion: squamous-cell papilloma; dosed 104 weeks; study length 104 weeks
propertyMeasured: TD50

Log: rodent lifetime carcinogenesis bioassay, tumor incidence TD50, molecule O=[N+]([O-])c1cccc2cccnc12 , TD50 = 9.55 mg/kg/day

###

test system: rodent lifetime carcinogenesis bioassay, tumor incidence TD50; assay: carcinogenic potency in animals, long-term in vivo studies, CPDB compilation (AID 1745844); conditions: mouse; strain B6C3F1; males; in feed; site: any site (literature study); lesion: several types; types named in the paper; dosed 67 weeks; study length 89 weeks
Calls of active or inactive are those of the source. No rule for the calls is given here.
propertyMeasured: TD50

Record summary for CCOP(=S)(OCC)Oc1ccc([N+](=O)[O-])cc1 : reported TD50 = 75.1 mg/kg/day (inactive)

###

tested on: rodent lifetime carcinogenesis bioassay, tumor incidence TD50; assay: carcinogenic potency in animals, long-term in vivo studies, CPDB compilation (AID 1745844); conditions: rat; strain Charles River CD (Sprague-Dawley); males; i.p.; site: peritoneum; lesion: sarcoma; dosed 26 weeks; study length 78 weeks
Numbered stars: 1 amine (or outer) side, 2 acyl side, 3 side chain; on linkers, the order of the positions; unused ones are H or OH. Bridge positions count the residues as written; N and C are the ends. Square brackets hold non-standard residues; d marks the D form. Peptide text beside a SMILES is read from it. I, II: the chains in the order shown. Actinocin(9to1) = Cc1c2oc3c(C)ccc(C(=O)[*:1])c3nc-2c(C(=O)[*:2])c(N)c1=O; NMeV = CN[C@H](C(=O)O)C(C)C; Sar = CNCC(=O)O
propertyMeasured: TD50

Given item Cc1c2oc3c(C)ccc(C(=O)N[C@@H]4C(=O)N[C@H](C(C)C)C(=O)N5CCC[C@H]5C(=O)N(C)CC(=O)N(C)[C@@H](C(C)C)C(=O)O[C@@H]4C)c3nc-2c(C(=O)N[C@@H]2C(=O)N[C@H](C(C)C)C(=O)N3CCC[C@H]3C(=O)N(C)CC(=O)N(C)[C@@H](C(C)C)C(=O)O[C@@H]2C)c(N)c1=O (I: T[dV]P[Sar][NMeV] / II: T[dV]P[Sar][NMeV]; ester I:1-I:C, II:1-II:C; linker I:N-II:N via Actinocin(9to1)) , the value recorded as its TD50 is 0.000769 mg/kg/day

TD50 for O[C@@H]([C@H](O)[C@H](O)CBr)[C@H](O)CBr is 30.9 mg/kg/day

get_value(item= O[C@H]([C@H](O)[C@@H](O)CBr)[C@H](O)CBr , readout=TD50) returns 59.2 mg/kg/day

Data origin, for the record: PubChem BioAssay AID1745844
